EXPERIMENT_SUMMARY: protein stability index of a GFP-peptide fusion (yeast GPS) (PSI 1-4); higher = more stable; sorted into four equal gates, so the index is relative within each strain
DETAILS: doa10∆
Answer NO if protein stability index is under 3, and YES if it is 3 or more.

Solved cases (5 shown):
> print(dat)
            primary.sequence  qualitative.label
1   KIMQSISNKDVIFKIRD [SRB4]                YES
2   EQDALFITRLAQGLLHL [RPN1]                 NO
3   QANSNLTLLERKWVIFI [NUT1]                 NO
4   DPSLNLKLLAKSHVLLA [BRR2]                 NO
5  QNDELKFQGVLESEAQK [RPC34]                YES

Please indicate if the recorded protein stability index for RYPMNLLEFIIDEIAYL [ECM29] meets or exceeds 3. NO

Could you tell me if the measured protein stability index of ELPLLSPERFATLGIDP [RPT1] reaches 3 or more? NO

Textbook exercise: given the entry NTLILRGPRNSREAVRH [RPL18A] , state whether its protein stability index is greater than or equal to 3. NO

Could you verify whether the entry HPNRVLEHLHSTAFQNT [COR1] shows protein stability index of no less than 3? NO

Determine whether this sequence has protein stability index no lower than 3: PLEKITDAYLDQYLWYE [PRP8] YES

Confirm if protein stability index reported for the sequence MAFEASAAAAGNRNSSS [BRR2] is 3 or above. YES

Does the reported protein stability index for KKVTAFVPNDGCLNFVD [RPS23A] fall at or above the 3 mark? NO

Given the entry VALTGLLIRSKTEDPKG [YML031W/NDC1] , answer whether its protein stability index meets or surpasses 3. NO

meta.source: the supplement of paper PMC9732359
